- protocol_summary: xn = mol fraction of the nth substance listed
- conditions_used: 303.15 K; 100 kPa; x1 = 0.7008
attribute_measured: viscosity (mPa·s)

Some entries whose results are on file:
>  <compound>
C1CCC2=[NH+]CCCN2CC1.c1nc[n-]n1 + CCO

>  <viscosity [mPa·s]>
325.1

$$$$
>  <compound>
C1CCC2=[NH+]CCCN2CC1.c1nc[n-]n1 + CO

>  <viscosity [mPa·s]>
366.4

$$$$
>  <compound>
C1CCC2=[NH+]CCCN2CC1.c1nc[n-]n1 + CC(C)O

>  <viscosity [mPa·s]>
298.3

$$$$
>  <compound>
C=CC(=O)OC + CCCCCCCCCCCC

>  <viscosity [mPa·s]>
0.601

$$$$
>  <compound>
C1CCC2=[NH+]CCCN2CC1.c1nc[n-]n1 + CS(C)=O

>  <viscosity [mPa·s]>
152.3

$$$$

1 = C1CCC2=[NH+]CCCN2CC1.c1nc[n-]n1 + CCCCO
2 = C1CCC2=[NH+]CCCN2CC1.c1nc[n-]n1 + CN(C)C=O
Req: # query: argmin of viscosity over 1 and 2 Kindly state the label of the option you pick.
Resp: 2
